Target: GST-Nv-NF-kB (Cys allele) (Nematostella vectensis, UniProt E5G601 2-411)
Sequence: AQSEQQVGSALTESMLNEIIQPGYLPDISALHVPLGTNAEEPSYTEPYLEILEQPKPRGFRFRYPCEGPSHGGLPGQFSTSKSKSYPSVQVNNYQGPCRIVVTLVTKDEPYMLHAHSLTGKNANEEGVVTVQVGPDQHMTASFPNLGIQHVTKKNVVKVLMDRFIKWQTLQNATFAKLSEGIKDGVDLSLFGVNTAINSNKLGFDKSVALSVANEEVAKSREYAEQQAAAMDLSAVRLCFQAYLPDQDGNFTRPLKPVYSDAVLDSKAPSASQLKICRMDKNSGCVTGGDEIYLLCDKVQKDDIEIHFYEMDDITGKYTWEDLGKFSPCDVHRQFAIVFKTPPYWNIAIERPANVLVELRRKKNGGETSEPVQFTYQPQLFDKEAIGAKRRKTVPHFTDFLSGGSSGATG
Assay: protein-binding microarray (PBM); PBM: ~300 nM protein, 6 mM HEPES pH 7.8, 80 mM KCl, 0.5 mM EDTA, 0.5 mM EGTA, 6% glycerol, 35 ng/ul poly-dIdC, 1% milk, 1 h, room temperature; high values mean tight binding
Conditions: dsDNA, one strand shown
Below: a set of entries, each annotated with reported binding signal.
Express it in z-score; write the number only.

Incoming: // binding signal lookup, key: `CCGATTAACATCAGGATTTCCCATGATGTTAATCGGGTCTTGATTCGCTTGACGCTGCTG`
Outgoing: 5.23

Further cases:
Incoming: // binding signal lookup, key: `CCGATTAACATCAATATAGTCCCTGATGTTAATCGGGTCTTGATTCGCTTGACGCTGCTG`
Outgoing: 4.77

Incoming: // binding signal lookup, key: `CCGATTAACATCAGCGATTCCCCTGATGTTAATCGGGTCTTGATTCGCTTGACGCTGCTG`
Outgoing: 6.55

Incoming: // binding signal lookup, key: `CCGATTAACATCAAAATTTACCCTGATGTTAATCGGGTCTTGATTCGCTTGACGCTGCTG`
Outgoing: 5.04

Incoming: // binding signal lookup, key: `CCGATTAACATCAGGGAAATAAATGATGTTAATCGGGTCTTGATTCGCTTGACGCTGCTG`
Outgoing: 4.44

Incoming: // binding signal lookup, key: `CCGATTAACATCAAGGTATTCCCTGATGTTAATCGGGTCTTGATTCGCTTGACGCTGCTG`
Outgoing: 3.82

Incoming: // binding signal lookup, key: `CCGATTAACATCAGTCCCGCACTTGATGTTAATCGGGTCTTGATTCGCTTGACGCTGCTG`
Outgoing: 1.95

Incoming: // binding signal lookup, key: `CCGATTAACATCATACCCCCCCATGATGTTAATCGGGTCTTGATTCGCTTGACGCTGCTG`
Outgoing: 2.65

Incoming: // binding signal lookup, key: `CCGATTAACATCAGGACTCCCCCTGATGTTAATCGGGTCTTGATTCGCTTGACGCTGCTG`
Outgoing: 7.17

Incoming: // binding signal lookup, key: `CCGATTAACATCACTATTTTCCCTGATGTTAATCGGGTCTTGATTCGCTTGACGCTGCTG`
Outgoing: 4.96

Incoming: // binding signal lookup, key: `CCGATTAACATCACACATTTCCCTGATGTTAATCGGGTCTTGATTCGCTTGACGCTGCTG`
Outgoing: 4.57

Incoming: // binding signal lookup, key: `CCGATTAACATCAAGGGAAATTCTGATGTTAATCGGGTCTTGATTCGCTTGACGCTGCTG`
Outgoing: 8.12

Incoming: // binding signal lookup, key: `CCGATTAACATCAGGGACTTTTATGATGTTAATCGGGTCTTGATTCGCTTGACGCTGCTG`
Outgoing: 9.97

Incoming: // binding signal lookup, key: `CCGATTAACATCAGGCAAATCCCTGATGTTAATCGGGTCTTGATTCGCTTGACGCTGCTG`
Outgoing: 2.27

Incoming: // binding signal lookup, key: `CCGATTAACATCAAGGCATTCCCTGATGTTAATCGGGTCTTGATTCGCTTGACGCTGCTG`
Outgoing: 2.56

Incoming: // binding signal lookup, key: `CCGATTAACATCACCACTTTCCCTGATGTTAATCGGGTCTTGATTCGCTTGACGCTGCTG`
Outgoing: 4.07

Incoming: // binding signal lookup, key: `CCGATTAACATCAGGGAATATAATGATGTTAATCGGGTCTTGATTCGCTTGACGCTGCTG`
Outgoing: 3.59

Incoming: // binding signal lookup, key: `CCGATTAACATCAGGAACCCCCATGATGTTAATCGGGTCTTGATTCGCTTGACGCTGCTG`
Outgoing: 5

====

Target: GST-Nv-NF-kB (Cys allele) (Nematostella vectensis, UniProt E5G601 2-411)
Sequence: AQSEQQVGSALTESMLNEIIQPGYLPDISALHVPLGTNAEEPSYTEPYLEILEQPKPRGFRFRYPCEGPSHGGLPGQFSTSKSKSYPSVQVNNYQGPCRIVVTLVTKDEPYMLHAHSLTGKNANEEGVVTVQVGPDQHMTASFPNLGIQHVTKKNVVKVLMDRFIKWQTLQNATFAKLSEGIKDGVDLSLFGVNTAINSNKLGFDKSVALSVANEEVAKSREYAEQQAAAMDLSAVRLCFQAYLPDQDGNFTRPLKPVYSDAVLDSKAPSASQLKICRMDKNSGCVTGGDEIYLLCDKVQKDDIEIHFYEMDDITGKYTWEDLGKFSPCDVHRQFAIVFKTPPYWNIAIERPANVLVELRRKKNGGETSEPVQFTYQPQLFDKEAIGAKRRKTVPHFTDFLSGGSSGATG
Test: protein-binding microarray (PBM); PBM: ~300 nM protein, 6 mM HEPES pH 7.8, 80 mM KCl, 0.5 mM EDTA, 0.5 mM EGTA, 6% glycerol, 35 ng/ul poly-dIdC, 1% milk, 1 h, room temperature; high values mean tight binding
Details: dsDNA, one strand shown
Where binding signal equals or exceeds 3 z-score, the correct label is condition met; where it does not, the label is condition not met.

Incoming: Reported binding signal reaches at least 3 z-score for `CCGATTAACATCAAAAAACCACCTGATGTTAATCGGGTCTTGATTCGCTTGACGCTGCTG` ?
Outgoing: condition met

Further cases:
Incoming: Reported binding signal reaches at least 3 z-score for `CCGATTAACATCAACCCCCGGCTTGATGTTAATCGGGTCTTGATTCGCTTGACGCTGCTG` ?
Outgoing: condition not met

Incoming: Reported binding signal reaches at least 3 z-score for `CCGATTAACATCAGGGGGTTAACTGATGTTAATCGGGTCTTGATTCGCTTGACGCTGCTG` ?
Outgoing: condition met

Incoming: Reported binding signal reaches at least 3 z-score for `CCGATTAACATCAATTTCCCAGGTGATGTTAATCGGGTCTTGATTCGCTTGACGCTGCTG` ?
Outgoing: condition not met

====

Molecular target: GST-Dm-Relish (Drosophila melanogaster, UniProt Q94527 99-473)
Sequence: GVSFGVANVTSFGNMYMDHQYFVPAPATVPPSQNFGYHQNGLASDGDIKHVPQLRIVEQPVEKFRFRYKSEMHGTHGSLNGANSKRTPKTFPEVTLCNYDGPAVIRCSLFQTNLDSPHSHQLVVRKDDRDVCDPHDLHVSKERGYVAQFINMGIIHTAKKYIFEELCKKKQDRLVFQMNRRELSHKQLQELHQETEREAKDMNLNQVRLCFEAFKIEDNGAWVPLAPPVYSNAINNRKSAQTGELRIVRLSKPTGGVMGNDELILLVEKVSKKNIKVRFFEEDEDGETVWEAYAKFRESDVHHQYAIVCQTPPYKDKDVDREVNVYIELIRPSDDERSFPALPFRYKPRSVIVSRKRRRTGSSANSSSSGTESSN
Assay: protein-binding microarray (PBM); PBM: ~300 nM protein, 6 mM HEPES pH 7.8, 80 mM KCl, 0.5 mM EDTA, 0.5 mM EGTA, 6% glycerol, 35 ng/ul poly-dIdC, 1% milk, 1 h, room temperature; Ap Aiptasia and Nv Nematostella (sea anemones) / Co Capsaspora / Aq Amphimedon (sponge) / Dm Drosophila / Hu human; RHD is the Rel homology domain; high values mean tight binding
Settings: dsDNA, one strand shown
Could you please mark Criterion met for values of binding signal below 6 z-score and Criterion not met for values at or above it?

# example entries with known answers
Incoming: Could you please tell me whether binding signal recorded for `CCGATTAACATCAGGGGAAGAACTGATGTTAATCGGGTCTTGATTCGCTTGACGCTGCTG` is less than 6 z-score?
Outgoing: Criterion not met

Incoming: Could you please tell me whether binding signal recorded for `CCGATTAACATCAGAACATTCCCTGATGTTAATCGGGTCTTGATTCGCTTGACGCTGCTG` is less than 6 z-score?
Outgoing: Criterion met

Incoming: Could you please tell me whether binding signal recorded for `CCGATTAACATCACGGACTCCCCTGATGTTAATCGGGTCTTGATTCGCTTGACGCTGCTG` is less than 6 z-score?
Outgoing: Criterion not met

Incoming: Could you please tell me whether binding signal recorded for `CCGATTAACATCAGGCAAACCCCTGATGTTAATCGGGTCTTGATTCGCTTGACGCTGCTG` is less than 6 z-score?
Outgoing: Criterion met

Further cases:
Incoming: Could you please tell me whether binding signal recorded for `CCGATTAACATCACCTGGTCGGGTGATGTTAATCGGGTCTTGATTCGCTTGACGCTGCTG` is less than 6 z-score?
Outgoing: Criterion met
